- Target Or Test System: L-lactate dehydrogenase (Plasmodium falciparum (isolate CDC / Honduras)) (UniProt Q27743)
- Sequence (Q27743 whole entry, looked up): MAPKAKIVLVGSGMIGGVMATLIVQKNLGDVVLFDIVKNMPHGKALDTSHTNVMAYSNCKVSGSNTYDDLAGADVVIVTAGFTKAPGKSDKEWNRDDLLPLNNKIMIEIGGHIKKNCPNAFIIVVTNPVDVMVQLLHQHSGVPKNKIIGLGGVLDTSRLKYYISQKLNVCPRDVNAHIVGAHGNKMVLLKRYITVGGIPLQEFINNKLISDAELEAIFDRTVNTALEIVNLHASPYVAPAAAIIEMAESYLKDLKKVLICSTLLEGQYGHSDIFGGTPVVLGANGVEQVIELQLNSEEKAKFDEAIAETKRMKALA
- Assay Remarks: PfLDH activity inhibition – cell lysate, 3D7 strain, counter-screen for P. falciparum growth inhibition project (AID 2304);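 further: 0% = vehicle and 100% = reference inhibitor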
- Condition Set: P. falciparum 3D7 crude extract, LDH APAD/NBT absorbance; at 2 µM; active compounds read high
Quantity Measured: inhibition (%)
Numeric answer only, unit % assumed.

In the examples that follow, each entry is paired with its recorded inhibition.
* COc1ccc(C(=O)NC(c2ccc(Cl)cc2Cl)c2cc(Cl)c3cccnc3c2O)cc1 (centres undefined) | 2
* O=C(/C=C/c1ccc(Cl)c(Cl)c1)NCCCCCN1CCC(NC(=O)Nc2ccccc2F)CC1 | -5
* COc1ccccc1CCNc1nc(C)cc(N[C@@H](Cc2ccccc2)C(=O)NCCCOC(C)C)n1 | -1
* CCC(Nc1noc(-c2c(-c3ccccc3)noc2C)n1)c1ccccc1 (centres undefined) | 1
* CC(C)C[C@H](NC(=O)c1cc(-c2ccc(C(C)(C)C)cc2)no1)C(=O)O (tested in a mixture with another compound) | -3
* Cc1ccccc1C1CCN(C2CCC(NC(=O)/C=C/c3ccc(C(F)(F)F)cc3)CC2)CC1 (centres undefined) | -3
* O=C(NCc1ccc(F)cc1)Nc1ccc(-c2ccc(-c3nc4ccccc4[nH]3)cc2)cc1 | 4
* CC(=O)Nc1ccc(CN2CCC(NC(=O)c3ccc(-c4ccc(N(C)C)cc4)s3)CC2)cc1 | -1

# context switch: different compound, same inhibition
Field inhibition (entry COc1cc(C(F)(F)F)cc2[nH]c(CNCCCNc3nc4ccccc4[nH]3)cc12 ) reads 2
